- test.name: protease stability score; higher = more stable; yeast display proteolysis, trypsin and chymotrypsin;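 note: relative to predicted unfolded state with 0 unfolded-like and 1 meaning tenfold more protease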
Category key, based on recorded protease stability score: I (below 0.9), II (0.9 to below 1), III (1 or more)

## Input Each sequence maps to one class by protease stability score. Which class for `SEEEHEQENWARLMLHLFLTGDEEILLELFDPNVRSDVDGRKFHGRDEVSHAIRWILEHFGFKHSHVRHFEIYNGRVHSEVEINVDGVRLTLHIHLNIYNGRLKDSEFRLK` ?
## Output II

## Input Each sequence maps to one class by protease stability score. Which class for `DEEHEHLHKWLDMLLYAHKTGDPEVILKNADPHVRSEVDGREVHGMEKFARDLYEMRIHRIHIKDVKTIGNKLDVDGRLDGEFNGKRVDSDVHLHLVVIDGRLHSLHIKHR` ?
## Output I

## Input Each sequence maps to one class by protease stability score. Which class for `DQRERDQHIALEIWLLVLETGDERYVRRYADPRMRIEVGDKEIHGREDALEFRTEELRHMRLRDFRNKSFTVIDGRVDFYGHLLIEVDGRSQIFDSRLIILKVNGRWFLESEIRH` ?
## Output III

## Input Each sequence maps to one class by protease stability score. Which class for `DEEEERVIHIMHLFLEHISTGDEDKVKHLMDPNVRVFIGNKQHVGMHEIIKHLREWRIELDDVRTEEVRIQGDKLHLNGRLHVTLEFNGRRIRTTVRTTNIFRKVDGRWILEAIHID` ?
## Output III

## Input Each sequence maps to one class by protease stability score. Which class for `DDWERLYLHLARLWFELILTGDEETIDKMVDPHTRLEIGDFESHGREELRYLFHHMRSHEIRIRSFDTYGDKAIIDGEIDTIINGRRMIVKIRLHVIIINGRVHSIKVEHE` ?
## Output III

## Input Each sequence maps to one class by protease stability score. Which class for `DEDHESWERAYNIYLHALRTGDEERNHELADPRVLTHIDGVELHGREMMTRVMTELRIHEHRIHRVHIIGEKIDIDIEVRFRWNGKLVDTRTHEHRLKVDGKWLLTRFEVR` ?
## Output I

## Input Each sequence maps to one class by protease stability score. Which class for `DEEEEINKKIVEDLFRALITGDEERQLKNMDPNTKIRTNVNGQDYIFHGRDLWVTLWNRFKNLRVEIESVHRQGNKIHFDTRLLFNGRIFQYHIVVISVNGQTKELKEHDE` ?
## Output III

## Input Each sequence maps to one class by protease stability score. Which class for `HEEDKWMKEVLYRFYEHYQTGDEDSLVKLMDPHAKLSFEGRENHGRDAIKTYWDIMGFDHLRLRDYEIRIIDGRAHLIVDTEIEIGDKRRRTIIIMHVLKFNGRWIVTHFHVEVR` ?
## Output I

## Input Each sequence maps to one class by protease stability score. Which class for `DKEEELMKTFSQLFEHWVETGDETEMLQNADPHAKSRFNGREIHGREDIVELLKRIIDQADHHEVHTDKVKVVGDKIHINSSFHIHIGEFTIRLHYELIVDKINGRWILKEVRLG` ?
## Output II

## Input Each sequence maps to one class by protease stability score. Which class for `SETEESLRRYIEDWLTALSTGNEDTLKRLMDPSTRVTVDGVEYHGRSALEEFIKRVDVIHRSDRHDFKIQGEKVHVDVRMDVHIDGQKHTLHSHWLILKINGRWVIHELIFE` ?
## Output III

---

- test.name: protease stability score; higher = more stable; yeast display proteolysis, trypsin and chymotrypsin;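 note: relative to predicted unfolded state with 0 unfolded-like and 1 meaning tenfold more protease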
measured.endpoint: protease stability score
Quick one: just the number, no unit, thanks!

## Input Which measured protease stability score value corresponds to `QEELDIAREMIKMWTHHLETGDEEVTKHLADPTTRFIIDGVTYHGMHNTVRLWLEIRSHSRIRIRFVEVQGNKVNSDVELEYDLIVGEKTDTIIRRSHLYLHKVDGRWRIKEIEFR` ?
## Output 1.12

## Input Which measured protease stability score value corresponds to `SKEEEHAYRVMEIILKQHLTGDEEEISRLLDPHVKMDVDGVILHGRENASRWLFEWIRFFKGLRLHIHIEDIQVQGEKSHHHTRLHITINGRTQNYRFKVHAVVVNGQIKHFELDWD` ?
## Output 1.39

## Input Which measured protease stability score value corresponds to `DEDEEKLKEFRDVLLHAISTGDEETIKTLVDPHVRIEIDGKERHGRDKVTKLFRDLGVDHVRLTEVSIIGDKLHLDLRLRYGDKERTMIWIISKINGRWLIHTVETH` ?
## Output 1.15

---

- test.name: protease stability score; higher = more stable; yeast display proteolysis, trypsin and chymotrypsin;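 note: relative to predicted unfolded state with 0 unfolded-like and 1 meaning tenfold more protease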
measured.endpoint: protease stability score
Quick one: just the number, no unit, thanks!

## Input Which measured protease stability score value corresponds to `SEEEHEEREAIEQLTRSLTTGDEHMMTNNMDPNVRIHIDGRDLVGREEAIKWLQEIHKKYKNIKYEIKRIDSFNGRLIVDGRVEYNGRRVDMHLIALKFDGRWLIEEVRVN` ?
## Output 2.26

## Input Which measured protease stability score value corresponds to `SETEEEAERFEKILLHYRKTGNEDDLLNFIDPHVRIHQGDKEIHGRELYLELMRRWKEIAGHDFFFMNIHDVEIQGEKAIIDGRLFVNGVHHKIKVIFKKINGRWIVESEHIH` ?
## Output 0.889

## Input Which measured protease stability score value corresponds to `SELHEKLKRDMDILEELLLTGDWEKLLKYIDPHARLEIGDKEVHGREILSEVFRDVFERIKNARIHIEHSEAINGRFDIHSEWIVNGKNRRVHIETVVINGRVDKLYFEIRHR` ?
## Output 1.05

## Input Which measured protease stability score value corresponds to `SEDEHRAEQLLRLWRETYTTGDERVMKELFDPNVRFDFNGREFIGREEAIRAFHEEVRHLGVDHVEIKEVEYRVINGQVHVHIESHFEVDGRRHRVHIESIVRKVNGKWRVEEVRIEIR` ?
## Output 0.969

## Input Which measured protease stability score value corresponds to `DEEEKRERKMAEIWMKSLLTGDEDTLSRLADPNVRNVLIIDGRELNLHGRELMHESLRHLRIEHIRIDEYSIVNGVFHANTTVHGVVGDKRTTVETRIHLWIFDGKFHTIIIIIS` ?
## Output 1.03

## Input Which measured protease stability score value corresponds to `DEDEKMLREYQRLFEEASKTGDWEHMVKLLDPDVRIRIGDKDIVGREHVLEQKKRHEDHLGIDRVNIKLVIRDERHQGEKIFLDGEFIMHFNGRTYRQHVTIILTKINGRWWIESIEIR` ?
## Output 1.19

## Input Which measured protease stability score value corresponds to `DEERHEALRVAKEFMHNFWTGNEELNRHLIDPNVRLTIEVGDKRIDRVGRESFSHTLHRWREHLRIEDLDETRIDVQGDKAVLHTIMHIKIGDKHITVEVDINILVVDGRLRHIRVIVR` ?
## Output 2.01

## Input Which measured protease stability score value corresponds to `RDKERMVHFIANYVLHSVLTGDWKMLFDLLDPSMRLEIGEKDSHGRENAEKLLHEFLEKLGADHTDIRRSHVTFQGDKIIIIINTEIDINGVRHEIWVRVIILKIDGKWVLESIRIEIR` ?
## Output 1.54

## Input Which measured protease stability score value corresponds to `SEEKEHHHQLARDILEMLRTGNEEIWHRLLDPHVKLNIDGKEYHGREDVRQMLRDHLEKIKGIKLHVTDVKDFDGKVYVHGRWHVGNFTVDILTIYTFIDGRVHTMSEETR` ?
## Output 1.41

## Input Which measured protease stability score value corresponds to `DEEDKWETHFLKVLEDSLKTGDETSLERMADPTARLSVGDKEHHGRDLLFFWIHKLLREAGVDKVESELHDEERQGEKVIVDIHLRVGDKVLRVIFYIYKYNGQWFIRSIEVE` ?
## Output 1.04

## Input Which measured protease stability score value corresponds to `DEEEEMSKEATEWFKRVSKTGDEKDLVEFLDPNVLLEIGDKRFHGREVASHWMTRMFHEIRIRHIEEKEFRIYNGRATLHEHLDIEFDGRTSKIHVTVVYIKVNGRWFMESLHIR` ?
## Output 0.808

## Input Which measured protease stability score value corresponds to `SEEDKHLRKMAQDILEWLFTGNWKDFFDNLDPNYRVEWNGKERIGRDLTRRMLETIRREMRLHDIKIHHFTAIDGVIHIDGSEYIHVDGVTTEVKTHIHIVIFNGRIKRIEFHDH` ?
## Output 1.48

## Input Which measured protease stability score value corresponds to `DEDLKLMLTLTHLWLHAVATGDEDLQTKLADPDVRFIFNGRIIHGMDEWRRFLKELRIKIEDTDHKDSDLYGEKLHIDGHIVIRIHVGEKNERIDTRVHIHVLVINGKLKSVKIETR` ?
## Output 2.13

## Input Which measured protease stability score value corresponds to `DEEDEALERSRQLLIKILRTGDFEDLDRMLDPHVRIIIGDKEFHGREEAIKWVRERMKRMGAKVVEHFNEDDWRLQGDKIELDGEYNVRQGDKQYHLRVHIISLKVDGKWYFHSLEIK` ?
## Output 0.232

## Input Which measured protease stability score value corresponds to `DERTELTRNFFEEMVDTMITGNEHLEHRLADPNVRIYVGEKRIHGMERYIHQHHQWRFKDFKLKDIDTQGDKATIDGHLEGEVNGKDTRTDVEVHTLKFNGRWLIHTLRIR` ?
## Output 1.1

## Input Which measured protease stability score value corresponds to `DESHRESKLANELLKLALHTGDEDLLRELLDPRMRLEIGDKEFIGRDIMVQAMHEFYRELGVKHTDLKIKRVEIQGNKVINEGILWFHVGDKEHWVSTEFQSVKVNGRWLLQVFSIK` ?
## Output 1.35

## Input Which measured protease stability score value corresponds to `DEKDKITQDLVKNIIDLFRTGNEDDLRRLADPHVQTHVNGRTIIGMEDASRKIKEILEELGIDHVHWHHVQAQGEKVEIHMEHRVGDKNWELIIRMDLVNGRIKRQEVELR` ?
## Output 0.927

## Input Which measured protease stability score value corresponds to `DERSHVLEEVLKKTSRANETGNEEIIEENLDPNTRFDWNGVIIHGREQWLELVKHMRISIHHFDTRDIREFNGRADVRGDMDSVIEVDGRRLRLDTHVIYHATKVDGRWVITEIRIH` ?
## Output 0.41

## Input Which measured protease stability score value corresponds to `REEEQHAERFTKLFIEAFETGDWKELSRLLDPHARMEWNGRVHHGMEQIVEVLLKQFHDLGFRIEHVRIHDIRVQGEKIKVDVDIDGIVDGRREHWKVTLIILKVNGRWLTKEIEYR` ?
## Output 1.31

## Input Which measured protease stability score value corresponds to `DEDEDDAERVFEELRKLIITGDEEEWEKLADPHVRVIINGRELHGREEWARFMRHMRIKNEHVHLRRMRVVDGRIEIDGEMDFRVDFNGQERRTRTDTNLIVTKYDGRWKLHHIEIR` ?
## Output 1.33

## Input Which measured protease stability score value corresponds to `DRQKEILRELMEMFLTIFETGDEERFWELADPHVRHVIDIGDKEIRRVGREEMLKVWEHLYREMRIHRITLKDVRLVNGVFHAHVKVDGEYNGQRRETEMDIELNVVNGRVKSLIIHIQ` ?
## Output 1.89

## Input Which measured protease stability score value corresponds to `DEHDEFLEISFKILKKTDDTGDERESRKLADPDARLHVNGVDFHGWEDFKKIMVDLGWRIEEIRIEHIRLVGDKIIIHERVRLRVGDKKRDLHFTIIALKINGRWHLRELHIE` ?
## Output 1.38
